# target: NLRP3 (Homo sapiens, UniProt Q96P20)
# Sequence (Q96P20 whole entry): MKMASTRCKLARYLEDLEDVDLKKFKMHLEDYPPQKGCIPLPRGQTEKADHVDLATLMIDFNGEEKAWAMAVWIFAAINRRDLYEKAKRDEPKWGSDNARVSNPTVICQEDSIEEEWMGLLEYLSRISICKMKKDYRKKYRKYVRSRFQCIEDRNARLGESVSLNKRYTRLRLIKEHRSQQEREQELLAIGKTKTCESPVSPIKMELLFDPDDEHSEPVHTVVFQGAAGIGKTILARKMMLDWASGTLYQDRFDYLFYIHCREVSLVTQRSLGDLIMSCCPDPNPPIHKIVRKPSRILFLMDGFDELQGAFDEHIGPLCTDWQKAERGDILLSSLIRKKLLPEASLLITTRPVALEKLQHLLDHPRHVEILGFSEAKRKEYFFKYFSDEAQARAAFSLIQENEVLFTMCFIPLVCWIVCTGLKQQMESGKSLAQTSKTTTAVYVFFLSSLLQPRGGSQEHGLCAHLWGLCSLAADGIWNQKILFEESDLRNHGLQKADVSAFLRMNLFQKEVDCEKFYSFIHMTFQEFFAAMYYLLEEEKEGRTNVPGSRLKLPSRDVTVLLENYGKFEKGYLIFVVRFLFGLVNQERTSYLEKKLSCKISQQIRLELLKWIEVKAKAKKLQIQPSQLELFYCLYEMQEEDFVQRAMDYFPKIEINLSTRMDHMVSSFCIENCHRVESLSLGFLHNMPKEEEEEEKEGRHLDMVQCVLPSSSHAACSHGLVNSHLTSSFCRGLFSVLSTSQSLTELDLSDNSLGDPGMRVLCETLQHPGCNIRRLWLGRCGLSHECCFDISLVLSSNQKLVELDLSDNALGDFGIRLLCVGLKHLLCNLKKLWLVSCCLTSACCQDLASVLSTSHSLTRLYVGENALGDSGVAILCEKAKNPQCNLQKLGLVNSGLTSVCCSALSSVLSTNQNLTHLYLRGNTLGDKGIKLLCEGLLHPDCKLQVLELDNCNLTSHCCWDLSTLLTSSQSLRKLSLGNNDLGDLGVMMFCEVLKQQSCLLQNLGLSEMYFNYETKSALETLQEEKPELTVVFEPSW
# protocol: Measurement of IL-1β production in PMA-differentiated THP-1 cells (NLRP3 hIL1B)
# Protocol: Measurement of IL-1β Production in PMA-Differentiated THP-1 Cells (§1) THP-1 cells were purchased from the American Type Culture Collection and sub-cultured according to instructions from the supplier. […] Cell free supernatant was collected and the production of IL-1β was evaluated by ELISA. […] as §1
pEC50: −log10 of the molar value.
measurement.type: pEC50

See these solved cases before continuing.
Task: Tell me pEC50 reported for COC(CO)CNc1nc(N)nc2cc(-c3ccn[nH]3)ccc12 (single isomer, unassigned) [Example 202]
Output: 6.06

Task: Tell me pEC50 reported for Nc1nc(N[C@H]2CCCC[C@H]2CO)c2ccc(-c3ccn[nH]3)cc2n1 (racemic) [Example 57]
Output: 6.10

[a] CN(C)c1ccc(CNc2nc(N)nc3cc(-c4ccn[nH]4)ccc23)nn1 [Example 164]
[b] CCCC(CCO)Nc1nc(N)nc2cc(-c3ccn[nH]3)ccc12 (racemic) [Example 96]
Task: Field: lower recorded pEC50 (choose a or b ) Could you answer with the label of the item you picked?
Output: a

Origin of the recorded values: patent US12187706B2
